The values you see were collected from the supplement of paper PMC8728848.

The binders listed here are annotated with their glycan array binding signal (z-score).
MEASURED ON: Neu5Gc(a2-6)GalNAc
ASSAY NAME: glycan array binding signal (z-score within array); higher = stronger binding
RUN PARAMETERS: glycan notation: IUPAC condensed, linker removed
Only a selection was taken, and the strongest signals are over-represented in it overall.
ENDPOINT LABEL: glycan array binding signal (z-score)

>>> recorded_value("PNA (Arachis hypogaea), P02872 (protein) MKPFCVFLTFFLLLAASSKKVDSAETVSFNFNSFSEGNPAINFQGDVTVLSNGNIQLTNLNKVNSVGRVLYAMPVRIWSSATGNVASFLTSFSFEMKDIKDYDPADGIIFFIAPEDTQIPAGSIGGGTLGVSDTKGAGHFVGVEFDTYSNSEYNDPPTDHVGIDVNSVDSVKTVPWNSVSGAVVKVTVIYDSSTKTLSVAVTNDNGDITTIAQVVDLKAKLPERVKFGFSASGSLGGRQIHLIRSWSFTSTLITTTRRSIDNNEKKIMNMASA")
-0.162
>>> recorded_value("pilr alpha (protein) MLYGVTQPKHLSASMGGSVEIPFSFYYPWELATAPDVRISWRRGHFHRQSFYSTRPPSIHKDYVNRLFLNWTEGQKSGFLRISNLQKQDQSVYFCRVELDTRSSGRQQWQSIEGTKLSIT")
-0.353
>>> recorded_value("WGA (Triticum vulgare) (protein) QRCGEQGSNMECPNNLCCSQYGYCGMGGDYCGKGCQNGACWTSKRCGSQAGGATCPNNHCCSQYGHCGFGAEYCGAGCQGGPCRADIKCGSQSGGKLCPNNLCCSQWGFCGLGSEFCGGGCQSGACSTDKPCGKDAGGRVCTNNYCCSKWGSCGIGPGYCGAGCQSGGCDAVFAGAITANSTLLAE")
-0.324
>>> recorded_value("AT1G73650(15) (Arabidopsis thaliana), F4HRY1 (protein) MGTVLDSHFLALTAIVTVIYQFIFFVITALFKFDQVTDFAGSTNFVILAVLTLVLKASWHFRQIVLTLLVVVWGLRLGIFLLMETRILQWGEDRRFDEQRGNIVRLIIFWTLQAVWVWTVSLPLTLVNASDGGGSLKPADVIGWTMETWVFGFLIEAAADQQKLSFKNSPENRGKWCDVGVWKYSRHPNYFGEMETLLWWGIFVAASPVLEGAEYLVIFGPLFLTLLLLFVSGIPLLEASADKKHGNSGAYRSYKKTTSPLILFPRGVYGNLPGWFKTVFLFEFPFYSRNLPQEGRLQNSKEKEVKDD")
3.69
>>> recorded_value("CTLX (Homo sapiens), Q6UXS0 (protein) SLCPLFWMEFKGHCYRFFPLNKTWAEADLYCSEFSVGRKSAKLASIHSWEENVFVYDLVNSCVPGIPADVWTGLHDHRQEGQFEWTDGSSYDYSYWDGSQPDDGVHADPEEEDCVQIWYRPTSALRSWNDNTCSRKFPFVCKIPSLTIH")
-0.736
>>> recorded_value("SLR2P2A3 (Tachypleus tridentatus), TAL2_TACTR (protein) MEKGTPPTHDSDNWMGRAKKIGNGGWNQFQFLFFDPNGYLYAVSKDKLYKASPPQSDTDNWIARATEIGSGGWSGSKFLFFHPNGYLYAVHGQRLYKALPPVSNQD")
-0.125
